Field: pIC50. Provide a value for each of the compounds that follow.
- test.system: SHV-5 (Klebsiella pneumoniae)
- Sequence (P0A3M1 22-286): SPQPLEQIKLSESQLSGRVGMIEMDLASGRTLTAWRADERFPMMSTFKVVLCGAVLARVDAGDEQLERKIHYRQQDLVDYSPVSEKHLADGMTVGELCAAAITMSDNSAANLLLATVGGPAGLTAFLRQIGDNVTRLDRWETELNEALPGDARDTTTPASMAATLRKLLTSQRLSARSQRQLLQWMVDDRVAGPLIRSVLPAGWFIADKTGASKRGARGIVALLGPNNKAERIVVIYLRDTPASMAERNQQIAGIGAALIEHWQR
- test.protocol: β-lactamase enzyme inhibition assay, SHV-5 (cefotaxime substrate)
pIC50: −log10 of the molar value.

# annotated cases, reported pIC50 shown
chemical_structure=NCc1nnn(CC(=O)N[C@H]2Cc3cccc(C(=O)O)c3OB2O)c1-c1ccsc1 reported_value="6.00 to 7.00"
chemical_structure=O=C(Cn1cc(C(=O)NC2CCNCC2)nn1)N[C@H]1Cc2cccc(C(=O)O)c2OB1O reported_value="6.00 to 7.00"
chemical_structure=CC(C)(CN)CNC(=O)c1cn(CC(=O)N[C@H]2Cc3cccc(C(=O)O)c3OB2O)nn1 reported_value="6.00 to 7.00"
chemical_structure=NCCCn1nnc(CC(=O)N[C@H]2Cc3cccc(C(=O)O)c3OB2O)n1 reported_value="> 7.00"
chemical_structure=NOCC(=O)NCc1cn(CC(=O)N[C@H]2Cc3cccc(C(=O)O)c3OB2O)nn1 reported_value="> 7.00"

Shifting focus to the compound that follows.
Problem: Complete the entry with pIC50 for "NCCn1cc(Cn2nnnc2CC(=O)N[C@H]2Cc3cccc(C(=O)O)c3OB2O)nn1"
Result: > 7.00
